- assayed target: HLA-A*03:01
- experiment summary: IEDB peptide-MHC binding, purified MHC/competitive/radioactivity; filed as Kd, often an IC50 or EC50 that approximates it; bounds were set here for any values at or beyond the usual limits of such assays
- condition summary: source organism: Dengue virus 2 Jamaica/1409/1983
Listing of recorded Kd by entry.
measured metric: Kd (nM)

[[record]]
polymer_sequence = "ALALGMMVLK"
assayed_target = "HLA-A*03:01"
measured_metric = "Kd"
units = "nM"
test_result = 24

[[record]]
polymer_sequence = "SMFEPEREK"
assayed_target = "HLA-A*03:01"
measured_metric = "Kd"
units = "nM"
test_result = 83.6

[[record]]
polymer_sequence = "KTVWFVPSIK"
assayed_target = "HLA-A*03:01"
measured_metric = "Kd"
units = "nM"
test_result = 6.64

[[record]]
polymer_sequence = "GLLLRKLTSK"
assayed_target = "HLA-A*03:01"
measured_metric = "Kd"
units = "nM"
test_result = 39.6

